Give measured IC50 for each item. Keep answers brief.
# assayed system: MARK2 (Homo sapiens)
# Construct: purchased MRC PPU
# Sequence (Q7KZI7 whole entry): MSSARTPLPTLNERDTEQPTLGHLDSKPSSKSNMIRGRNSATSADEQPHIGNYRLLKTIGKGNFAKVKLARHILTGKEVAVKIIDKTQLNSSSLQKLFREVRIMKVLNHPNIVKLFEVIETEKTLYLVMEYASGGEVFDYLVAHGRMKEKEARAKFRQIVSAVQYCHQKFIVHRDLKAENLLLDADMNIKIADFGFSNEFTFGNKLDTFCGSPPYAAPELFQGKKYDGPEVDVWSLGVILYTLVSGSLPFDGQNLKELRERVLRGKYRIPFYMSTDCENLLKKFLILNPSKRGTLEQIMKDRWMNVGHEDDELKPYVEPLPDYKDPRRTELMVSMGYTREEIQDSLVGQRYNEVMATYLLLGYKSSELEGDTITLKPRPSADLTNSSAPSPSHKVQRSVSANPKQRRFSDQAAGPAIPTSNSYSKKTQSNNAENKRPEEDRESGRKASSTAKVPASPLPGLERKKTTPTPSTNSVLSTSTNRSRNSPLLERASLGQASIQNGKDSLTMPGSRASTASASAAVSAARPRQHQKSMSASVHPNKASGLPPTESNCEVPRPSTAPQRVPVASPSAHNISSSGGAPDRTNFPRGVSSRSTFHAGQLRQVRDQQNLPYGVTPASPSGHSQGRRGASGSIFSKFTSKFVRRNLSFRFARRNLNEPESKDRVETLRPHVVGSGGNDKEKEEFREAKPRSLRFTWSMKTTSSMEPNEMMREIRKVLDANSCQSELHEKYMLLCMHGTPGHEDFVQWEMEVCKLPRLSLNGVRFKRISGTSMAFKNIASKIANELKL
# assay text: ADP-Glo biochemical assay MARK2
# conditions: ADP-Glo assay; read-out: MARK2 pIC50 (converted)
Answers are plain numbers, in µM.

Would you please look over these solved cases?
compound	assayed system	IC50 [µM]
CC(C)N1CCN(c2ccc(Nc3ncc4ccn(CC5CCOC(C)(C)C5)c4n3)cc2)CC1 (stereo not shown) [Compound 26]	MARK2 (Homo sapiens)	11.2
CC(C)N1CCN(c2ccc(Nc3ncc4ccn(CC5CCCO5)c4n3)cc2)CC1 (stereo not shown) [Compound 27]	MARK2 (Homo sapiens)	2.04
Cc1cc(=O)n(C2CCCC2)c2nc(Nc3ccc(N4CCN(C(C)C)CC4)cc3)ncc12 [Compound 5]	MARK2 (Homo sapiens)	5.62
CC(C)N1CCN(c2ccc(Nc3ncc4ccn(CC5CCOCC5)c4n3)cc2)CC1 [Compound 25]	MARK2 (Homo sapiens)	7.08
Cc1cc(=O)n(C2CCCC2)c2nc(Nc3ccc(N4CCN(C)CC4)cc3)ncc12 [Compound 4]	MARK2 (Homo sapiens)	3.39

Quick one: give me IC50 for each item below, same order please.
1. CN1C2CC1CN(c1ccc(Nc3ncc4ccn(CC5CCCO5)c4n3)cc1)C2 (stereo not shown) [Compound 28]
2. CC(C)N1CCN(c2ccc(Nc3ncc4c(n3)N(C3CCCC3)C(=O)C4)cc2)CC1 [Compound 7]

1: 5.75; 2: 4.47

---

Give measured NUAK1 pIC50 for each item. Keep answers brief.
# assayed system: NUAK1 (Homo sapiens)
# Sequence (O60285 1-661): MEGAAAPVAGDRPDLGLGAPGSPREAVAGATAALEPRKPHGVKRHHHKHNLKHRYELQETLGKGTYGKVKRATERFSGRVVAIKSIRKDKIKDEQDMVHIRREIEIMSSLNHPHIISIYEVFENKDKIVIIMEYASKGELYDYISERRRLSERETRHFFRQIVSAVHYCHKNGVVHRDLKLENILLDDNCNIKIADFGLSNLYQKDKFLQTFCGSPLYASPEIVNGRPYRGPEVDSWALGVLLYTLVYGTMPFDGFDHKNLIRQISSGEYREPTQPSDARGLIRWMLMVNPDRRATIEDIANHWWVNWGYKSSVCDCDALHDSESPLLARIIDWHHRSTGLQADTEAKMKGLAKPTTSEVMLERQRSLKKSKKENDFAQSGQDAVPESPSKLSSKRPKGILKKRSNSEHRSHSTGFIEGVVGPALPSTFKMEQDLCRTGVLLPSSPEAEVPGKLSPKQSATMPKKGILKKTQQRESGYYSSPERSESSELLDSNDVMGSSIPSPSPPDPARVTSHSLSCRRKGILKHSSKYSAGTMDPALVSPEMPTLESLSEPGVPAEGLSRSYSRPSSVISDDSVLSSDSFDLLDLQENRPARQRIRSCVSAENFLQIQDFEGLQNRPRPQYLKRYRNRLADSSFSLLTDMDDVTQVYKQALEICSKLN
# assay text: ADP-Glo biochemical assay NUAK1
# Parameters: purchased MRC PPU
# conditions: ADP-Glo assay
One number for each entry.

Would you please look over these solved cases?
compound	NUAK1 pIC50
CN1C2CC1CN(c1ccc(Nc3ncc4ccn(C5COC5)c4n3)cc1)C2	7.8
CC(C)N1CCN(c2ccc(Nc3ncc4ccn(C5CCCC5)c4n3)cc2)CC1	8.3
COc1cc(N2CCN(C)CC2)ccc1Nc1ncc2c(C)cc(=O)n(C3CCCC3)c2n1	6.6
COc1cc(Nc2ncc3c(n2)N(C2CCCC2)C(=O)C(C)(C)O3)cc(OC)c1OC	7.4
COCCn1c(=O)cc(C)c2cnc(Nc3ccc(N4CC5CC(C4)N5C)cc3)nc21	6.7

Shift focus to the following entry.
Sure, the documented NUAK1 pIC50 for CC(C)N1CCN(c2ccc(Nc3ncc4ccn(CC5CCOC(C)(C)C5)c4n3)cc2)CC1 (stereo not drawn) is 8.6

Source: paper PMC11831560
